- MEASURED ON: UniProt P07650
- Sequence (P07650 whole entry, looked up): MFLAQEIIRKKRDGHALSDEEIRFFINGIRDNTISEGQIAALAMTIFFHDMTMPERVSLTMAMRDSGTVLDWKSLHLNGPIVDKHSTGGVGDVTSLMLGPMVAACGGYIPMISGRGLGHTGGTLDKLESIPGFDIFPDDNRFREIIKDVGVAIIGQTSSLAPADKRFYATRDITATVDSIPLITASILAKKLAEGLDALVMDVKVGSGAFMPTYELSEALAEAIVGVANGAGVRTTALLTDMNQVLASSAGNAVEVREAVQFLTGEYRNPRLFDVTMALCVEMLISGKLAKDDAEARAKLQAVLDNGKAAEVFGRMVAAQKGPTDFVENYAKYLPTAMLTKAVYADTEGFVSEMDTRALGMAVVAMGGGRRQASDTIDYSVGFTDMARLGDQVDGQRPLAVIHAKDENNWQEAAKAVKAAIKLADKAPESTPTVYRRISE
- ASSAY PROCEDURE: Activity of Escherichia coli thymidine phosphorylase assessed as drug phosphorylation after 2 hrs
- Set-up: concentration or dose not given beside the values
Reported values of Activity for individual entries
Provide the reading as a plain figure in %.

Please review the following examples before continuing.
Cc1cn([C@H]2C[C@H](O)[C@@H](CI)O2)c(=O)[nH]c1=O : 0
Cc1cn([C@H]2CC[C@@H](CO)O2)c(=O)[nH]c1=O : 6.1
Cc1cn([C@H]2C[C@H](O)[C@@H](C)O2)c(=O)[nH]c1=O : 91

*Q* Activity for Cc1cn([C@H]2C[C@H](O)[C@@H](CN)O2)c(=O)[nH]c1=O ?
*A* 36

*Q* Query (molecule): Cc1cn([C@H]2C[C@H](S)[C@@H](CO)O2)c(=O)[nH]c1=O ; field requested: Activity
*A* 0

----------
Each entry below carries its reported Activity.
- MEASURED ON: Thymidine phosphorylase (Escherichia coli K-12)
- ASSAY PROCEDURE: Activity of Escherichia coli thymidine phosphorylase assessed as drug phosphorylation after 1 hr
- Design: concentration or dose not given beside the values
Give a bare numeral; the unit % is implied.

Sample answers from the record:
Cc1cn([C@H]2C[C@H](O)[C@@H](CS)O2)c(=O)[nH]c1=O : 39
Cc1cn([C@H]2C[C@H](O)[C@@H](C)O2)c(=O)[nH]c1=O : 68
Cc1cn([C@H]2CC(O)[C@@H](CO)O2)c(=O)[nH]c1=O (single isomer, unassigned) : 0
Cc1cn([C@H]2C[C@H](N)[C@@H](CO)O2)c(=O)[nH]c1=O : 0.76
Cc1cn([C@H]2C[C@H](O)[C@@H](CN=[N+]=[N-])O2)c(=O)[nH]c1=O : 0

*Q* Could you tell me which Activity is on file for O=c1ccn([C@@H]2O[C@H](CO)[C@@H](O)[C@H]2O)c(=O)[nH]1 ?
*A* 56

*Q* Request the reported Activity associated with Cc1cn([C@H]2CC[C@@H](CO)O2)c(=O)[nH]c1=O
*A* 3.2

----------
Reported Activity values are given for each entry in this list.
- MEASURED ON: Thymidine phosphorylase (Escherichia coli K-12)
- ASSAY PROCEDURE: Activity of Escherichia coli thymidine phosphorylase assessed as drug phosphorylation after 1 hr
- Set-up: concentration or dose not given beside the values
Entry rule: numbers only, all in %.

Some solved cases for reference:
Cc1cn([C@H]2C[C@H](O)[C@@H](CN)O2)c(=O)[nH]c1=O : 11
Cc1cn([C@H]2C[C@H](O)[C@@H](CO)O2)c(=O)[nH]c1=O : 86
Cc1cn([C@H]2C[C@H](S)[C@@H](CO)O2)c(=O)[nH]c1=O : 0
Cc1cn([C@H]2C[C@H](O)[C@@H](CI)O2)c(=O)[nH]c1=O : 0

Kindly consider the entry below.
*Q* # lookup: Activity of Cc1cn([C@H]2C[C@H](O)[C@@H](CCl)O2)c(=O)[nH]c1=O
*A* 24
